measured_on: G21 (PCFT) (Homo sapiens)
Construct: expressed in transfected cells; host or cells: Xenopus laevis oocytes injected with capped G21 cRNA (pSPT64, SP6)
Sequence (Q96NT5 whole entry): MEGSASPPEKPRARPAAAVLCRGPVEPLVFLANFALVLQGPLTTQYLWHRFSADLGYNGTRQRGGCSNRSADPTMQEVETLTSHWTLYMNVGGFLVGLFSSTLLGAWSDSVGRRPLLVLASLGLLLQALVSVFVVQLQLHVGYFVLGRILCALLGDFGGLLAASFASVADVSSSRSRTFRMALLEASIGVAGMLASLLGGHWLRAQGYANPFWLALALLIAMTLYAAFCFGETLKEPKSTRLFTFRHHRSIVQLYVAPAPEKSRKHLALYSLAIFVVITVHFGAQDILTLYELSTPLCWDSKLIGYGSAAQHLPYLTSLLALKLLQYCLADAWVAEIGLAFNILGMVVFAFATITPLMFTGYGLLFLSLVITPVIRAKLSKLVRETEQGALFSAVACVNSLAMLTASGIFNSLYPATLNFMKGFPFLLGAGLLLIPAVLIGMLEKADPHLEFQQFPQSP
test_details: Inhibition of [3H]folic acid uptake into G21 cRNA-injected Xenopus oocytes
Type: cell-based
stated_conditions: 20 μM nonlabeled compound, pH 5.5, 30 min
property_name: inhibitory effect on uptake of 2 μM [3H]folic acid

smiles_representation | value_observed
Nc1nc(N)c2nc(CNc3ccc(C(=O)N[C@@H](CCCNC(=O)c4ccccc4C(=O)O)C(=O)O)cc3)cnc2n1 | did not inhibit
Nc1ccc(C(=O)NCC(=O)O)cc1 | did not inhibit

Recorded values, source patent US7888025B2.
